- Test system: CT-26 (mouse colon adenocarcinoma)
- protocol summary: Cytotoxicity, fluorometric cell viability assay (resazurin), CT-26
- Assay type: cell-based
- condition context: Mus musculus, CT26, 48 h, read-out: IC50 (μM) CT-26
measure name: IC50 (µM)
Give your result in µM as a bare value.

IN: Would you kindly share the measured IC50 for Oc1c(O)c(Br)c(Br)c(Br)c1Br ?
OUT: 5.53

---

Examples of compounds with documented IC50 follow.
- Tested on: HeLa (human cervical)
- protocol summary: Cytotoxicity, fluorometric cell viability assay (resazurin), HeLa
- Assay type: cell-based
- condition context: Homo sapiens, 48 h incubation, read-out: IC50 (μM) HeLa
- Experimental: HeLa and CT-26 cell lines were cultured in DMEM media (Gibco) supplemented with 10% of fetal calf serum (Gibco). CT-26 LUC cell line was cultured in DMEM media (Gibco) supplemented with 10% of fetal calf serum (Gibco) and 1% Genticin. […] Cytotoxicity of the tested Ru compounds according to the present invention was assessed by a fluorometric cell viability assay using Resazurin (ACROS Organics). […] IC50 values were then calculated using GraphPad Prism software.

[[record]]
compound = "Cc1cccc(O)c1O"
endpoint_value = "> 100 µM"


IN: Would you kindly share the measured IC50 for Oc1ccccc1O ?
OUT: > 100 µM

IN: Would you kindly share the measured IC50 for COc1cccc(O)c1O ?
OUT: 56.2 µM

IN: Would you kindly share the measured IC50 for O=[N+]([O-])c1ccc(O)c(O)c1 ?
OUT: > 100 µM

IN: Would you kindly share the measured IC50 for Cc1occc(=O)c1O [Maltol, 3-Hydroxy-2-methyl-4H-pyran-4-one] ?
OUT: 74 µM

IN: Would you kindly share the measured IC50 for COc1cccc2c1C(=O)c1c(O)c3c(c(O)c1C2=O)C[C@@](O)(C(=O)CO)C[C@@H]3O[C@H]1C[C@H](N)[C@H](O)[C@H](C)O1 ?
OUT: 0.34 µM

IN: Would you kindly share the measured IC50 for Cc1ccc(O)c(O)c1 ?
OUT: > 100 µM

IN: Would you kindly share the measured IC50 for CC(C)(C)c1ccc(O)c(O)c1 ?
OUT: 93.1 µM
